In this section, each of the compounds is paired with its reported Sa399 MIC.
# Tested on: Staphylococcus aureus SAU.399 (ATCC 43300), Methicillin and Oxacillin Resistant
# Type: cell-based
# measurement conditions: ATCC 43300

| compound | target or test system | readout unit | Sa399 MIC |
| --- | --- | --- | --- |
| CCCCCCCCC1CC1C(=O)N[C@@H](Cc1c[nH]c2ccccc12)C(=O)N[C@H](CC(N)=O)C(=O)N[C@@H](CC(=O)O)C(=O)N[C@@H]1C(=O)NCC(=O)N[C@@H](CCCN)C(=O)N[C@@H](CC(=O)O)C(=O)N[C@H](C)C(=O)N[C@@H](CC(=O)O)C(=O)NCC(=O)N[C@H](CO)C(=O)N[C@@H]([C@H](C)CC(=O)O)C(=O)N[C@@H](CC(=O)c2ccccc2N)C(=O)O[C@@H]1C (single isomer, unassigned) [27 isomer II] | Staphylococcus aureus SAU.399 (ATCC 43300), Methicillin and Oxacillin Resistant | µg/mL | 0.5 |
| CC(C)CCCCCCCCCC(=O)N[C@@H](Cc1c[nH]c2ccccc12)C(=O)N[C@H](CC(N)=O)C(=O)N[C@@H](CC(=O)O)C(=O)N[C@@H]1C(=O)NCC(=O)N[C@@H](CCCN)C(=O)N[C@@H](CC(=O)O)C(=O)N[C@H](C)C(=O)N[C@@H](CC(=O)O)C(=O)NCC(=O)N[C@H](CO)C(=O)N[C@@H]([C@H](C)CC(=O)O)C(=O)N[C@@H](CC(=O)c2ccccc2N)C(=O)O[C@@H]1C [Compound 10] | Staphylococcus aureus SAU.399 (ATCC 43300), Methicillin and Oxacillin Resistant | µg/mL | 0.25 |
| CCCCc1ccc(CC(=O)N[C@@H](Cc2c[nH]c3ccccc23)C(=O)N[C@H](CC(N)=O)C(=O)N[C@@H](CC(=O)O)C(=O)N[C@@H]2C(=O)NCC(=O)N[C@@H](CCCN)C(=O)N[C@@H](CC(=O)O)C(=O)N[C@H](C)C(=O)N[C@@H](CC(=O)O)C(=O)NCC(=O)N[C@H](CO)C(=O)N[C@@H]([C@H](C)CC(=O)O)C(=O)N[C@@H](CC(=O)c3ccccc3N)C(=O)O[C@@H]2C)cc1 [Compound 44] | Staphylococcus aureus SAU.399 (ATCC 43300), Methicillin and Oxacillin Resistant | µg/mL | 4 |
| CCCCCCCCCCCCCC(=O)N[C@@H](Cc1c[nH]c2ccccc12)C(=O)N[C@H](CC(N)=O)C(=O)N[C@@H](CC(=O)O)C(=O)N[C@@H]1C(=O)NCC(=O)N[C@@H](CCCN)C(=O)N[C@@H](CC(=O)O)C(=O)N[C@H](C)C(=O)N[C@@H](CC(=O)O)C(=O)NCC(=O)N[C@H](CO)C(=O)N[C@@H]([C@H](C)CC(=O)O)C(=O)N[C@@H](CC(=O)c2ccccc2N)C(=O)O[C@@H]1C [Compound 6] | Staphylococcus aureus SAU.399 (ATCC 43300), Methicillin and Oxacillin Resistant | µg/mL | 0.25 |
| CCCSc1ccc(-c2csc(C(=O)N[C@@H](Cc3c[nH]c4ccccc34)C(=O)N[C@H](CC(N)=O)C(=O)N[C@@H](CC(=O)O)C(=O)N[C@@H]3C(=O)NCC(=O)N[C@@H](CCCN)C(=O)N[C@@H](CC(=O)O)C(=O)N[C@H](C)C(=O)N[C@@H](CC(=O)O)C(=O)NCC(=O)N[C@H](CO)C(=O)N[C@@H]([C@H](C)CC(=O)O)C(=O)N[C@@H](CC(=O)c4ccccc4N)C(=O)O[C@@H]3C)c2)cc1 [Compound 56] | Staphylococcus aureus SAU.399 (ATCC 43300), Methicillin and Oxacillin Resistant | µg/mL | 2 |
| CCCC1CCC(c2ccc(C(=O)N[C@@H](Cc3c[nH]c4ccccc34)C(=O)N[C@H](CC(N)=O)C(=O)N[C@@H](CC(=O)O)C(=O)N[C@@H]3C(=O)NCC(=O)N[C@@H](CCCN)C(=O)N[C@@H](CC(=O)O)C(=O)N[C@H](C)C(=O)N[C@@H](CC(=O)O)C(=O)NCC(=O)N[C@H](CO)C(=O)N[C@@H]([C@H](C)CC(=O)O)C(=O)N[C@@H](CC(=O)c4ccccc4N)C(=O)O[C@@H]3C)cc2)CC1 (single isomer, unassigned) [53 isomer II] | Staphylococcus aureus SAU.399 (ATCC 43300), Methicillin and Oxacillin Resistant | µg/mL | 1 |
| CCCCCCCCCC(C)NC(=O)N[C@@H](Cc1c[nH]c2ccccc12)C(=O)N[C@H](CC(N)=O)C(=O)N[C@@H](CC(=O)O)C(=O)N[C@@H]1C(=O)NCC(=O)N[C@@H](CCCN)C(=O)N[C@@H](CC(=O)O)C(=O)N[C@H](C)C(=O)N[C@@H](CC(=O)O)C(=O)NCC(=O)N[C@H](CO)C(=O)N[C@@H]([C@H](C)CC(=O)O)C(=O)N[C@@H](CC(=O)c2ccccc2N)C(=O)O[C@@H]1C (single isomer, unassigned) [14 isomer II] | Staphylococcus aureus SAU.399 (ATCC 43300), Methicillin and Oxacillin Resistant | µg/mL | 0.25 |
| CCCCCCCCCCCC(=O)N[C@@H](Cc1c[nH]c2ccccc12)C(=O)N[C@H](CC(N)=O)C(=O)N[C@@H](CC(=O)O)C(=O)N[C@@H]1C(=O)NCC(=O)N[C@@H](CCCN)C(=O)N[C@@H](CC(=O)O)C(=O)N[C@H](C)C(=O)N[C@@H](CC(=O)O)C(=O)NCC(=O)N[C@H](CO)C(=O)N[C@@H]([C@H](C)CC(=O)O)C(=O)N[C@@H](CC(=O)c2ccccc2N)C(=O)O[C@@H]1C [Compound 3] | Staphylococcus aureus SAU.399 (ATCC 43300), Methicillin and Oxacillin Resistant | µg/mL | 1 |
| CCCCCCCCCCC(=O)N[C@@H](Cc1c[nH]c2ccccc12)C(=O)N[C@H](CC(N)=O)C(=O)N[C@@H](CC(=O)O)C(=O)N[C@@H]1C(=O)NCC(=O)N[C@@H](CCCN)C(=O)N[C@@H](CC(=O)O)C(=O)N[C@H](C)C(=O)N[C@@H](CC(=O)O)C(=O)NCC(=O)N[C@H](CO)C(=O)N[C@@H]([C@H](C)CC(=O)O)C(=O)N[C@@H](CC(=O)c2ccccc2N)C(=O)O[C@@H]1C [Compound 2] | Staphylococcus aureus SAU.399 (ATCC 43300), Methicillin and Oxacillin Resistant | µg/mL | 0.5 |
| CCCCCCC1CCC(C(=O)N[C@@H](Cc2c[nH]c3ccccc23)C(=O)N[C@H](CC(N)=O)C(=O)N[C@@H](CC(=O)O)C(=O)N[C@@H]2C(=O)NCC(=O)N[C@@H](CCCN)C(=O)N[C@@H](CC(=O)O)C(=O)N[C@H](C)C(=O)N[C@@H](CC(=O)O)C(=O)NCC(=O)N[C@H](CO)C(=O)N[C@@H]([C@H](C)CC(=O)O)C(=O)N[C@@H](CC(=O)c3ccccc3N)C(=O)O[C@@H]2C)CC1 (stereo partly shown) [Compound 18] | Staphylococcus aureus SAU.399 (ATCC 43300), Methicillin and Oxacillin Resistant | µg/mL | 1 |
